- STRUCTURE NOTATION: "FCCN1CCc2sc(Nc3ncc(F)cn3)nc2-c2cn[nH]c21"
  melting point: "283 to 286 °C"
- STRUCTURE NOTATION: "N#Cc1cccc(CN2CCc3sc(Nc4ncc(F)cn4)nc3-c3cn[nH]c32)c1"
  melting point: "282 to 284 °C"
- STRUCTURE NOTATION: "Cc1ccnc(Nc2nc3c(s2)CCNc2[nH]ncc2-3)n1"
  melting point: "229 to 232 °C"

* * *

Molecular target: recombinant human mGluR4a receptors (Homo sapiens, UniProt Q14833)
Sequence (Q14833 33-912): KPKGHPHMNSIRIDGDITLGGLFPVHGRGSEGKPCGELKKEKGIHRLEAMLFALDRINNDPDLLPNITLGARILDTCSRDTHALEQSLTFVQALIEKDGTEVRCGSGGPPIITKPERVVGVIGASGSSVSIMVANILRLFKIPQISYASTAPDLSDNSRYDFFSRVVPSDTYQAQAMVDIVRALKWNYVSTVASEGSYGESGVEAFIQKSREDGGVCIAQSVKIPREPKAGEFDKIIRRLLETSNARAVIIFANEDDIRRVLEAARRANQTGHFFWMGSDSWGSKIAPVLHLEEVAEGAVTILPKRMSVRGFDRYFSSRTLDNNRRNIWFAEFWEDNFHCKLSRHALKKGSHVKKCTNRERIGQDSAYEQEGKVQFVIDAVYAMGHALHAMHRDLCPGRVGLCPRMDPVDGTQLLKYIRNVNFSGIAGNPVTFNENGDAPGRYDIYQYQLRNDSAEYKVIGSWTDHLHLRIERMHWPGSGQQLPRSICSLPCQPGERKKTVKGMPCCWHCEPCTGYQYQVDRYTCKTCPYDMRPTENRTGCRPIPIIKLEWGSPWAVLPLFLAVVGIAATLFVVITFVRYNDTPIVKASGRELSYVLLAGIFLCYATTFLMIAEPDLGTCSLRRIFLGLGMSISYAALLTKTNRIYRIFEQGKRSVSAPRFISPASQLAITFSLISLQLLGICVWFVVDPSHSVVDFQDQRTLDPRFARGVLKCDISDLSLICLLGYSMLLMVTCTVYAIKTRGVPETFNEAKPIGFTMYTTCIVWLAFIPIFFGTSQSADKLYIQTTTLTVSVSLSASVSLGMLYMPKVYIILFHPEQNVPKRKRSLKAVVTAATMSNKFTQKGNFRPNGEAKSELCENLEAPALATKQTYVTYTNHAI
Experiment: mGluR4 assay on HEK-expressing human mGluR4: fluorescent cell based Ca2+ mobilization assay (FLIPR)
Details: HEK-293 cells expressing hmGluR4; enhancement of EC25 glutamate response; mean of at least three independent experiments in duplicate; read-out: Ca^2+ Flux (mean EC50)
Description: mGluR4 Assay on HEK-Expressing Human mGluR4 The compounds of the present invention are positive allosteric modulators of mGluR4 receptor. Their activity was examined on recombinant human mGluR4a receptors by detecting changes in intracellular Ca^2+ concentration, using the fluorescent Ca^2+-sensitive dye Fluo4-(AM) and a Fluorometric Imaging Plate Reader (FLIPR, Molecular Devices, Sunnyvale, Calif.). […]
ASSAY READOUT: EC50

- STRUCTURE NOTATION: "Cc1ccnc(Nc2nc3c(s2)CCN(CCCN2CCOCC2)c2[nH]ncc2-3)n1"
  TESTED SYSTEM: "recombinant human mGluR4a receptors (Homo sapiens, UniProt Q14833)"
  ASSAY READOUT: "EC50"
  VALUE MEASURED: "< 100 nM"
- STRUCTURE NOTATION: "Fc1cnc(Nc2nc3c(s2)CCN(Cc2cccc(F)c2)c2[nH]ncc2-3)nc1"
  TESTED SYSTEM: "recombinant human mGluR4a receptors (Homo sapiens, UniProt Q14833)"
  ASSAY READOUT: "EC50"
  VALUE MEASURED: "1000 to 10000 nM"
- STRUCTURE NOTATION: "Cc1nc(Nc2nc3c(s2)CCN(CC2CC2)c2[nH]ncc2-3)ns1"
  TESTED SYSTEM: "recombinant human mGluR4a receptors (Homo sapiens, UniProt Q14833)"
  ASSAY READOUT: "EC50"
  VALUE MEASURED: "1000 to 10000 nM"
- STRUCTURE NOTATION: "Cc1cccc(Nc2nc3c(s2)CCN(C[C@@H]2CCCO2)c2[nH]ncc2-3)n1"
  TESTED SYSTEM: "recombinant human mGluR4a receptors (Homo sapiens, UniProt Q14833)"
  ASSAY READOUT: "EC50"
  VALUE MEASURED: "100 to 1000 nM"
